test system: gel-filtered platelets; assay: In vitro inhibition of thrombin-induced gel-filtered platelet aggregation; format: cell-based; conditions: Platelet; human gel-filtered platelets; agonist thrombin 50 μL of 1 unit/mL; read-out: Thrmb IC50 (Thrombin-induced aggregation of gel-filtered platelets)
measureName: pIC50
Give bare numbers, as −log10 of the molar value.

structure=COC[C@H]1CCCN1Cc1cn(Cc2cc(Cl)nc(Cl)c2)c2cc(NC(=O)N[C@@H](Cc3cccc(F)c3)C(=O)N[C@@H](CCCNC(=N)N)C(=O)NCc3ccccc3)ccc12 subjectoftest="gel-filtered platelets" number=4.65

Okay, now this molecule:
Looking for the measured pIC50 of NCC[C@H](NC(=O)[C@H](Cc1ccc(F)c(F)c1)NC(=O)Nc1cccc2c1c(CN1CCCC1)cn2Cc1c(Cl)cccc1Cl)C(=O)NCCN1CCCC1 , can you help?
4.39
